- System: Liver
- assay_explanation: Half life in mouse liver microsomes
- Format: ADME
measurement_label: t1/2 (min)
# number only, unit min dropped from output

# example entries with known answers
O=C(N[C@H](Cc1c[nH]c2ccccc12)C(=O)Nc1ccncc1)c1ccc(-c2ccc(OCc3ccc(F)cc3)c(F)c2)cc1F    67
O=C(N[C@H](Cc1c[nH]c2ccccc12)C(=O)Nc1ccncc1)c1ccc(-c2ccc(F)c(Cl)c2)cc1F    54
O=C(N[C@H](Cc1c[nH]c2ccccc12)C(=O)Nc1ccncc1)c1ccc(N2CCN(c3cccc(F)c3)CC2)cc1F    20
CC(=O)N1CCN(c2ccc(C(=O)N[C@H](Cc3c[nH]c4ccccc34)C(=O)Nc3ccncc3)c(F)c2)CC1    13

Request: Form field: reported t1/2 of O=C(N[C@H](Cc1c[nH]c2ccccc12)C(=O)Nc1ccncc1)c1ccc(-c2cc(C(F)(F)F)ccc2F)cc1F
Result: 49

Request: Form field: reported t1/2 of O=C(N[C@H](Cc1c[nH]c2ccccc12)C(=O)Nc1ccncc1)c1ccc(N2CCN(c3cccc(Cl)c3)CC2)cc1F
Result: 33

Request: Form field: reported t1/2 of O=C(N[C@H](Cc1c[nH]c2ccccc12)C(=O)Nc1ccncc1)c1ccc(-c2cccc(C(F)(F)F)c2)cc1F
Result: 51

Request: Form field: reported t1/2 of O=C(N[C@H](Cc1c[nH]c2ccccc12)C(=O)Nc1ccncc1)c1ccc(-c2ccc(F)c(C(F)(F)F)c2)cc1F
Result: 58
